The measured values listed here are drawn from the RNAGym collection of RNA variant scans (doi:10.1101/gad.245936.114).

B1: tRNA (parent)
chain: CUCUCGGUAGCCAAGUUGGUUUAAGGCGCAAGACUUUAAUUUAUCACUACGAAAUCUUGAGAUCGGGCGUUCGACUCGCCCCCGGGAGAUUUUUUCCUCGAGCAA

Variants of: B1
Test: nonsense suppression (GFP-seq) (ratio to wild type); higher = more function; SUP4oc tRNA, yeast GFP reporter sort-seq
This sample holds only a part of the variants without activity.
Field: nonsense suppression. Provide a value for each of the variants that follow.

Recorded result, CUCUCGGUAGCCAAGCUGGUUUAAGGCGCAAGACUUUAAUUUAUCACUACGAAAUCUUGAGAUCGGGCGUUCGACUCACCCCCGGGAGAUUUUUUCCUCGAGCAA [U16C G78A] , nonsense suppression: 0.837

The reported nonsense suppression of the variant CUCUCGGUAGCCAAGUUGGUUUAAGCCGUAAGACUUUAAUUUAUCACUACGAAAUCUUGAGAUCGGUCGUUCGACUCGCCCCCGGGAGAUUUUUUCCUCGAGCAA [G26C C29U G67U] was ≤ 0.026

nonsense suppression in this record for CUCUCGGUAGCCAAGUUGGUUUAAGGUGCAAGACUUUAAUUUAUCACUACGAAAUCUUGAGAUCAGGCGUUCGACUCGCCCCCGGGAGAUUUUUUCCUCGAGCAA [C27U G65A] : 0.0374

Form: variant = CUCUCGGUAGCCAAGAUGGUUUAAGGCGCAAGACUUUAAUUUAUCACUACGAAAUCUUGAGGUCGGGCGUUCGACGCGCCCCCGGGAGAUUUUUUCCUCGAGCAA [U16A A62G U76G] ; nonsense suppression = ≤ 0.026

variant CUCUCGGUAGCCAAGUUGGUUUAAGGCGCAAGACUUUAAUUUAUCACUACGAAAUCUUGAAAGCGGGCGUUCGACUCGCCCCCGGGAGAUUUUUUCCUCGAGCAA [G61A U63G] , nonsense suppression observed: 0.227

Reported nonsense suppression for CUCUCGGUAGCCAAGUUGGUUUAAGGCGCAAGACUUUAAUUUAUCACUACGAAGUCUUGAGAUCGGGCGUACGACUCGCCCCCGGGAGAUUUUUUCCUCGAGCAA [A54G U71A] was ≤ 0.026

Reported nonsense suppression of CUCUCGGUAGCCAAGUUGGUUUAAGUCGCAAGACUUUAAUUUAUCACUACGAAAUCUUGAAAUCGGGCGUUCGACUCGCCCCCGGGAGAUUUUUUCCUCGAGCAA [G26U G61A] : ≤ 0.026

Record summary for CUCUCGGUAGCCAGGUUGGUUUAAGGCGCAAGACUUUAAUUUAUCACUACGAAAUCCAGAGAUCGGGCGUUCGACUCGCCCCCGGGAGAUUUUUUCCUCGAGCAA [A14G U57C U58A] : reported nonsense suppression = ≤ 0.026

Reported nonsense suppression for CUCUCGGUAGCCAAGUUGGUUUAAAGCGAAAGACUUUAAUUUAUCACUACGAAAUCUUGAGAUCGGGCGUUCGACUCGCCCCCCGGAGAUUUUUUCCUCGAGCAA [G25A C29A G84C] was 0.027

CUCUCGGUUGCCAAGUUGGUUUAAUCCGCAAGACUUUAAUUUAUCACUACGAAAUCUUGAGAUAAGGCGUUCAACUCGCCCCCGGGAGAUUUUUUCCUCGAGCAA [A9U G25U G26C C64A G65A G73A] yielded nonsense suppression of ≤ 0.026

Reported nonsense suppression ( CUCUCGGUAGCCAAGUUGGUUUAAGGCGCAAGACUUUAAUUUAUCACUACGAAAUCUUGAGAUCGGACGUUCGACUCGCCCCCUGGAGAUUUUUUCCUCGAGCAA [G67A G84U] ) = 0.0504

// recorded nonsense suppression for CUCUCGGUAGCCAAGUUGGUUUAAGGCGCAAGGCUUUAAUUUAUCACUACGAAAUCUUGAGAUCGGGCGUUCGACUCGCCCCCGGGAGAUUUUUUCCUCGAGCAA [A33G] : 0.346

So, CUCUCGGUAGCCAAGUUGGUUUAAGGCGCAAGACUUUAAUUUAUCACUACGAAAUCUCGACAUCGGGCGUUCGACUCGCCCCCGGGAGAUUUUUUCCUCGAGCAA [U58C G61C] ? Its nonsense suppression was 0.0324

Measured nonsense suppression, CUCUCGGUAGCCAAGUUGGUUUAAGGCACAAGACUUUAAUUUAUCACUACGAAAUCUUGAGAUCGGGCGUUCGAGUCGCCCCCGGGAGAUUUUUUCCUCGAGCAA [G28A C75G] : 1.02

Just so you know, measured nonsense suppression for CUCUAGGUAGCCAAGUUGGUUUAAGGCGCAAGACUUUAAUUUAUCACUACGAAAUCUAGAGAUCGGGCGUUCGACUCCCCCCCGGGAGAUUUUUUCCUCGAGCAA [C5A U58A G78C] came out at ≤ 0.026

Please fill in: nonsense suppression reported for CUCUCGGUAGCCAAGUUGGUUUGAGGCGCAAGACUUUAAUUUAUCACUACGAAAUCUUGAGAUCGGGCGUUCGACUCGCCCCCUGUAGAUUUUUUCCUCGAGCAA [A23G G84U G86U] = ≤ 0.026

Documented nonsense suppression of CUCUCGGUAGCCAAGUUGGUUGAAGGCGCAAGACUUUAAUUUAUCACUACGAAAUCUUGAGAUCGGGGGUUCGACUCGCCCCCGGGAGAUUUUUUCCUCGAGCAA [U22G C68G] : ≤ 0.026

# nonsense suppression of CUCUCGGUAGCCAAGUUGGUCUAAGGCGCAAGACUUUAAUUUAUCACUACGAAAUCUUGAGGUCGGGCGUUCGACUCGCCCCCGGGAGAUUUUUUCCUCGAGCAA [U21C A62G] = 0.0282

Record CUCUCGGUAGCCAAGAUGGUUUAAGGCGCAAGACUUUAAUUUAUCACUACGAAAUCUUGGGAUCGGGCGUUCGACUCGCCCCCGGGAGAUUUUUUCCUCGAGCAA [U16A A60G] , field nonsense suppression: 0.247

Query UUCUCGUUAGCCAAAUUGGUUUAAGGCGCAAGACAUUAAUUUAUCACUACGAAAUCUUGAGGUCGGGCGUUCGACUCGCCCCCGGGAGAUUUUUUCCUCGAGCAA [C1U G7U G15A U35A A62G] yields nonsense suppression of ≤ 0.026

Looking up CUCUCGGUAGCCAAGUUGGUUUAAGGCGCUAGACUUUAAUUUAUCACUACGAAAUCUUGAAAUCGGGCGUUCGACUCGCCCCCGGGAGAUUUUUUCCUCGAGCAA [A30U G61A] , I found its nonsense suppression recorded as 0.0365

So, CUCUCGGUAGCCAAGUUGGUUUAAGGCGCAAGACUUUAAUUUAUCACUACGAAUUCUUGAGAUCGGGCGUUCGACUCGCCCCCGGGGGAUUUUUUCCUCGAGCAA [A54U A87G] ? Its nonsense suppression was 0.867
